Test system: rat brain homogenates
Test: Iron/ascorbate mediated lipid peroxidation of rat brain homogenates (TBARS)
Assay type: biochemical
Details: rat brain homogenate, 30 minutes incubation with iron and ascorbate, TBARS
Readout label: pIC50
Give bare numbers, as −log10 of the molar value.

Please look at the items below and tell me pIC50 for each one, in order.
1. C[n+]1ccc(-c2c3nc(c(-c4cc[n+](C)cc4)c4[n-]c(c(Br)c4Br)c(-c4cc[n+](C)cc4)c4nc(c(-c5cc[n+](C)cc5)c5[n-]c2c(Br)c5Br)C(Br)=C4Br)C(Br)=C3Br)cc1.[Mn+3] [MnOBTM-4-PyP]
2. O=C(O)c1ccc(-c2c3nc(c(-c4ccc(C(=O)O)cc4)c4ccc([nH]4)c(-c4ccc(C(=O)O)cc4)c4nc(c(-c5ccc(C(=O)O)cc5)c5ccc2[nH]5)C=C4)C=C3)cc1.[Fe+3] [FeTBAP]

Result string:
5.89
3.67
